# procedure_details: yeast display, Sf9 membrane polyspecificity reagent, FACS + sequencing; frameworks hold sequencing errors
measured_quantity: polyreactivity (PSR sort gate)

QVQLVESGGGLVQAGGSLRLSCAASGYIFDRYAMGWYRQAPGKERELVATITRRGGSTYYADSVKGRFTISRDNAKNTVYLQMNSLKPEDSAVYYCAKRSPGTYIAMGYWGQGTQVTVSS	high polyreactivity
QVQLVESGGGLVQAGGSLRLSCAASGRTFRRYTMGWYRQAPGKERELVATISSGGSTYADSVKGRFTISRDNAKNTVYLQMNSLKPEDTAVYYCAATAIYPSAWRMDYWGQGTQVTVSS	high polyreactivity
QVQLVESGRGLVQAGGSLRLSCAASGVTFNVYAMGWYREAPGKVRELVAAISYNGGRTYYADSVKGRFTISRDNAKNTVYLQINSLKPEDTAVFYCAALYYFTPSDGRRYDYWGQCTQVTVSS	high polyreactivity
QVQLVESGGGLVQAGGSLRLSCAASGRTFVVNAMGWYRQATGKERELVAAITRRGGITYYADSVKGRFTISRDTAKNTVYFQMNSLKPEDTAVLYCAADRSYYPDTRSTYGYNYWGQGTQVTVSS	low polyreactivity

Consider now this further sequence.
## Task Provide one value: measured polyreactivity (PSR sort gate) of QVQLVESGGGLVQAGGSLRLSCAASGITLYRYAMGWYRHAPGKERELVAAISWSGGSTYYADSVKGRFTISRDNAKNTVYLQMNSLKPEDTAVYYCAADDYKDEHDYWGQGTQVTVSS
## Result high polyreactivity

---

# procedure_details: yeast display, Sf9 membrane polyspecificity reagent, FACS + sequencing; frameworks hold sequencing errors
measured_quantity: polyreactivity (PSR sort gate)

QVQLVESGGGLVQAGGSLRLSCAASGLTIVWYGMVWYRQAPGKERELVAAITRGGSTYYADSVKGRFTISRDNAKNTVYLQMNSLKPEDTAVYYCAATSTYRARFEYWGQGTQVTVSS	high polyreactivity
QVQLVESGGGLVQAGGSLRLSCAASVRTQPRYAMGRYRQAPGKERDLVAAISRSGGSTHYADSVKGRFTISRDNAKNTVYFQMNSLKPEDTAVYYCATQRYPYRFYAFQYYYWGQGTQVTVSS	high polyreactivity

---

# procedure_details: yeast display, Sf9 membrane polyspecificity reagent, FACS + sequencing; frameworks hold sequencing errors
measured_quantity: polyreactivity (PSR sort gate)

QVKLVESWRGLVPAGVSLRLSCAASVNILDYYAMGWYRQAPGNERELVASITSGGGTYYADSVKGRFTISRDNAKNTVYLQMNSLKPEDTAVYYCNAGPKRTYSPPWRVRYYDWGQGTQVTVSS	high polyreactivity
QVQLVESGGGLVQAGGSLRLSCAASGRTFYTYAMGWYRPAPGKERELVASISSGGNTNYADSVKGRFTISRDNAKNTVYLQMNSLKPEDTAVYYCAASYLKRRGYWGQGTQVTVSS	low polyreactivity
QVQLVESGGGLVQAGGSLRLSSAASGRTFEGYAMGWYRQAPGKERELVAAISGSSGSTYYADSVKGRFTISRDNAKNTVYLQMNSLKPEDTAVYYCNADYDWPGGSDYWGQGTQVTVSS	low polyreactivity
QVQLVESGGGLVQAGGSLRLSCAASGRIFTYNARGWYRQAPGKERELVAAITYRGSSTYYADSVKGRFTISRDIAKNTVYLQMNSLKAEDTAVYYCAAVFSGFYYAYDYWGQGTQVTVSS	high polyreactivity

Please turn your attention to the following entry.
## Task Specify polyreactivity (PSR sort gate) for QVQLVESGGGLVQAGGSLRLSCSASGFIFYKNAMGWYRQAPGKERELVAAISGGGGSTYYADSVKGRFTISRDNAKNTVYLQMNSLKPDDTAVYYCATYSFRRTGWRYDYWGQGSQVTVSS and stop.
## Result high polyreactivity

---

# procedure_details: yeast display, Sf9 membrane polyspecificity reagent, FACS + sequencing; frameworks hold sequencing errors
measured_quantity: polyreactivity (PSR sort gate)

Would you please look over these solved cases?
QVQLVESGGGLVQAGGSLRLSCAASGRTFYTNAMGWYRQAPGKERELVAVISRGGTTYYADSVKGRFTISRDNAKNTVYLQMNSLKPEDTAVYYCAKQRPSGESSSQMGSWGQGTQVTVSS	low polyreactivity
QVQLVESGGGLVQAGGSLRLSCAASGITFSGNAMGWYRQAPGKERELVAAISRNGGRTYYADSVKGRFTISRDNAKNTVYLQMNSLKPEDTAVYYCAKDAYGYSRVSAWYYTYDYWGQGTQVTVSS	high polyreactivity
QVQLVESGGGLVQAGGSLRLSCAASGIIFSPNAMGWYRQAPGKEMELVAGISSGGSTYYADSVKGRFTISRDNAKNTVYFQMNSLKPEDTAVYYCNRGWAHSNAKFDYWGQGTQVTVSS	high polyreactivity
QVQLVESGGGLVQAGGSLRLSCAASGSIFYPYAMGWYRQAPGKERELVAAISYNGGSTYYADSVKGRFTISRDNAKNTVYLQMNSLKPEETAVYYCAARPYHGKLDYWGQGTQVTVSS	low polyreactivity
QVQLVESGGGLVQAGGSLRLSCAASGSIFSSNAMGWYRQAPGKERELVASIRRGGSTYYADSVKGRFTISRDNAMNTVYLQMNSLKPEDTAVYDCARRYVPWYATYDHWGQGTQVTVSS	high polyreactivity

## Task // fetch polyreactivity (PSR sort gate) given entry QVQLVESGGGLVQAGGSLRLSCAASGFTFWANAMGWYRQAPGKERELVAAISWSGGSTTYADSVKGRFTISRDNAKNTVYLQMNSLKPEDTAVYYCATDYGHYVTYRLSDYWGQGTQVTVSS
## Result low polyreactivity

## Task Name the recorded polyreactivity (PSR sort gate) of the sequence listed here: QVQLVESGGGLVQAGGSLRLSCAASGFTIVYYAMGWYRQAPGKERELVAAISATGGRTYYADSVKGRFTISRDNAKNTVYLQMNSLKPEDTAVYYCAVGLSGASSGMGYWGQGTQVTVSS
## Result high polyreactivity

## Task Give the value of polyreactivity (PSR sort gate) reported for the following: QVQLVESGGGLVQAGGSLRLSCAASGYIFFGNAMGWYRQAPGKERELVAAIRGRGTSTYYADSVKGRFTISRDNAKNTVYLQMNSLKPEDTAVYYFDADVVRSNFYGTFMYDYDYWGQGTQVTVSS
## Result low polyreactivity

## Task Please look at this sequence and report its polyreactivity (PSR sort gate): QVQLVESGGGLVQAGGSRRLSCAASGRTFVGTAMGWSRQAPGKERELVAAMSGDGSTNYADSVKGRFTISRDNAKNTVYLQMNSLKPEDTAVYYCAADGVTRYYQRTYTRYGYWGQGTQVTVSS
## Result low polyreactivity

## Task Identify measured polyreactivity (PSR sort gate) corresponding to QVQLVESGGGLVQAGGSLRLSCAASGITFPINAMGWYRQAPGKEREFVATISFSGASTYYADSVKGRFTISRDNAKNTVYLQMNSLKPEDTAVYYCAADLSLSTGGRAFPTYGYWGQGTQVTVSS
## Result high polyreactivity

## Task Read the entry QVQLVESGGGLVQAGGSLRLSCAASGLTLDPYAMGWSRQAPGKERELVAAISWSGGGTTYADSVKGRFTISRDNAMNTVYLQMNSLKPEDTAVYYCAAAAPHLSAKMDYWGQGTQVTVSS and write its reported polyreactivity (PSR sort gate).
## Result low polyreactivity

---

# procedure_details: yeast display, Sf9 membrane polyspecificity reagent, FACS + sequencing; frameworks hold sequencing errors
measured_quantity: polyreactivity (PSR sort gate)

Solved cases (4 shown):
QVQLVESGGGLVQAGGTLRLSCAASGSIFGNNLMGWYRQAPGKERELVAAISWSGGKNYADSVKGRFTISRDNAKNTVYLEMHCLIPDDSAVYYCAALSVWSYYTYYYWGQGTQVTVSS	high polyreactivity
QVQLVESGGGLVQAGGSLRLSCAASGSTYYLYAMGWYRQAPGKERELVAVITWSDGSTYYADSVKGRFTISRDNAKNTVYFQMNSLKPEDTAVSYCAKDLDSGGRGYYWGQGTQVTVSS	low polyreactivity
QVHLVESGGGLVQAGGSLRLSCPASGLTFYRYAMGLYRPAPGKERELVAAISSGGNTYYADSVKGRFTISRDNAKNTVYLQMNSMKPEDTAVYYCAAESYALRGHPGYYYWGQGSQVTVSS	high polyreactivity
QVHLVESGGGLVQAGGSLRLSCAASGIIFHYYAMGWYRQAPGKERALVATMTSGGSTYYADSVKGRFTISRDNAKNTVYLQMNSLKPEDSAVYYCAATYGGSVFEYDYWGQGTQVTVSS	low polyreactivity

## Task Note polyreactivity (PSR sort gate) for the sequence shown: QVQLVESGGGLVQAGGSLRLSCAASGGTFSYYAMGWYRQAPGKERELFASISSGGSTYYADSVKGRFTISRDNAKNTVYLQMNSLKPEDTAVYYCNAEARSRRYRYDYWGQGTQVTVSS
## Result high polyreactivity

---

# procedure_details: yeast display, Sf9 membrane polyspecificity reagent, FACS + sequencing; frameworks hold sequencing errors
measured_quantity: polyreactivity (PSR sort gate)

QVQLVESGGGLVQAGGSLRLSCAASGRIFWSYAMGWYRQAPGKEREFVAVITWSGGSTYYADSVKGRFTISRDNAKNTVYLQMNSLKPEDTAVYYCAAGQWWYQVRFDYWGQGTQVTVSS	low polyreactivity
QVQLVESGGGLVQAGGSLRLSCAASGRIFGVYAMGWYRQAPGKERELVAAISRGGSTKYADSVKGRFTISRDNAKNTVYLQMNSLKPEDTAVYYCAARRWGRVYTTYTGGYWGQGTQVTVSS	high polyreactivity
QVQLVESGGGLVQAGGSLPLTCAASGLTFYDYPMGWYRKATVKERELVAAIRRSGTRTYYADSVKGRFTISRDYAKNTVYLQMNSLKPEDTAVYYCNTVRRLKRYSSYGHDYWGQGTQVTVSS	high polyreactivity
QVQLEESGGGLVQAGGSLRLSCAASGGIFGWYTMGWNRQAPGKERELVAAINFSGSRTYYADSVKGRFTISRHNAKNTVYLQMNSLKPEDTAVYYCNAVYHQFRVEYWGQGTQVTVSS	high polyreactivity
HVQLVESGGGLVQAGGSLRFSCAASVSTLRWNAMGWYRQAPAKEREMVAAITYSGGSTYYADSVKGLFTISRDNAKNTVYLQMNSLKPEDTAVYYCAADSYRYRPGYGPVLYDYWGQGTQVTVSS	high polyreactivity
QVQLVESGGRIVQAGGSLRLRCAASGSTFRWYAMGRYRQAPGKERQLVASITWSGGGTYYADSVKGRFTISRDNAKNTVYLQMNSLKPEDTAVYYCNRRTWRYETRGDDYWGQGTQVTVSS	high polyreactivity
QVQLVESGGGLVQAGGSLRLSCAASGSIFWDYAMGRYRQAPGKERELVASITSGGSTYYADSVKGRFTISRDNAKNTVYLQMNSLKPEDTAVYYCAADGHTRHWGQTGRGAMYYWGQGTQVTVSS	low polyreactivity
QVQLVESGGGLVQAGGSLRLSCAASGSIILLYAMGWYRQAPGKERELVAAISRSGDSTHYADSVKGRFTISRDNAKNTVYLQMNSLKPEDTAVYYCAADGYHPYGGLYDYCGQGTQVTVSS	low polyreactivity

Next, consider the following sequence.
## Task Let me know recorded polyreactivity (PSR sort gate) for QVQLVESGGGLVQAGGSLRLSCAASGSTFYTYAMGWYRQAPGKERELVAAISYRGGSTYYADSVKGRFTISRDNAKNTVYLQMNSLKPEDTAVYYCNVDGVVVGTKRGGYDYWGQGTQVTVSS , thanks.
## Result low polyreactivity
